Overview of recorded GRinf for various compounds
system: Mycobacterium tuberculosis Erdman (autoluminescent); assay: GRinf, maximum normalised growth rate inhibition (three-drug combination) (unitless (-1 to 1)); higher = less effect (negative = killing); conditions: in vitro model: cholesterol 0.05 mM; time point: terminal (~4-5 doublings, model-specific)

1. CC(C)/N=c1\cc2n(-c3ccc(Cl)cc3)c3ccccc3nc-2cc1Nc1ccc(Cl)cc1 [clofazimine] + CC[C@@H](CO)NCCN[C@@H](CC)CO [ethambutol] + COc1c(N2C[C@@H]3CCCN[C@@H]3C2)c(F)cc2c(=O)c(C(=O)O)cn(C3CC3)c12 [moxifloxacin]    -0.144
2. CC(C)/N=c1\cc2n(-c3ccc(Cl)cc3)c3ccccc3nc-2cc1Nc1ccc(Cl)cc1 [clofazimine] + COc1c(N2C[C@@H]3CCCN[C@@H]3C2)c(F)cc2c(=O)c(C(=O)O)cn(C3CC3)c12 [moxifloxacin] + NC(=O)c1cnccn1 [pyrazinamide]    -0.137
3. CC[C@@H](CO)NCCN[C@@H](CC)CO [ethambutol] + CC(=O)NC[C@H]1CN(c2ccc(N3CCOCC3)c(F)c2)C(=O)O1 [linezolid] + NC(=O)c1cnccn1 [pyrazinamide]    -0.696
4. CC[C@@H](CO)NCCN[C@@H](CC)CO [ethambutol] + COc1c(N2C[C@@H]3CCCN[C@@H]3C2)c(F)cc2c(=O)c(C(=O)O)cn(C3CC3)c12 [moxifloxacin] + NC(=O)c1cnccn1 [pyrazinamide]    -0.21
5. CC[C@@H](CO)NCCN[C@@H](CC)CO [ethambutol] + CC(=O)NC[C@H]1CN(c2ccc(N3CCOCC3)c(F)c2)C(=O)O1 [linezolid] + O=[N+]([O-])c1cn2c(n1)OC[C@@H](OCc1ccc(OC(F)(F)F)cc1)C2 [pretomanid]    -0.207

The compound CC(C)/N=c1\cc2n(-c3ccc(Cl)cc3)c3ccccc3nc-2cc1Nc1ccc(Cl)cc1 [clofazimine] + NNC(=O)c1ccncc1 [isoniazid] + COc1c(N2C[C@@H]3CCCN[C@@H]3C2)c(F)cc2c(=O)c(C(=O)O)cn(C3CC3)c12 [moxifloxacin] showed GRinf equal to -0.228

The compound CC(C)/N=c1\cc2n(-c3ccc(Cl)cc3)c3ccccc3nc-2cc1Nc1ccc(Cl)cc1 [clofazimine] + CC(=O)NC[C@H]1CN(c2ccc(N3CCOCC3)c(F)c2)C(=O)O1 [linezolid] + CO[C@H]1/C=C/O[C@@]2(C)Oc3c(C)c(O)c4c(O)c(c(/C=N/N5CCN(C6CCCC6)CC5)c(O)c4c3C2=O)NC(=O)/C(C)=C\C=C\[C@H](C)[C@H](O)[C@@H](C)[C@@H](O)[C@@H](C)[C@H](OC(C)=O)[C@@H]1C [rifapentine] showed GRinf equal to -0.212

The compound CC[C@@H](CO)NCCN[C@@H](CC)CO [ethambutol] + NC(=O)c1cnccn1 [pyrazinamide] + CO[C@H]1/C=C/O[C@@]2(C)Oc3c(C)c(O)c4c(O)c(c(/C=N/N5CCN(C6CCCC6)CC5)c(O)c4c3C2=O)NC(=O)/C(C)=C\C=C\[C@H](C)[C@H](O)[C@@H](C)[C@@H](O)[C@@H](C)[C@H](OC(C)=O)[C@@H]1C [rifapentine] showed GRinf equal to -0.315

The compound COc1nc2ccc(Br)cc2cc1[C@@H](c1ccccc1)[C@@](O)(CCN(C)C)c1cccc2ccccc12 [bedaquiline] + COc1c(N2C[C@@H]3CCCN[C@@H]3C2)c(F)cc2c(=O)c(C(=O)O)cn(C3CC3)c12 [moxifloxacin] + CO[C@H]1/C=C/O[C@@]2(C)Oc3c(C)c(O)c4c(O)c(c(/C=N/N5CCN(C)CC5)c(O)c4c3C2=O)NC(=O)/C(C)=C\C=C\[C@H](C)[C@H](O)[C@@H](C)[C@@H](O)[C@@H](C)[C@H](OC(C)=O)[C@@H]1C [rifampicin] showed GRinf equal to -0.045

The compound CC(C)/N=c1\cc2n(-c3ccc(Cl)cc3)c3ccccc3nc-2cc1Nc1ccc(Cl)cc1 [clofazimine] + CC(=O)NC[C@H]1CN(c2ccc(N3CCOCC3)c(F)c2)C(=O)O1 [linezolid] + O=[N+]([O-])c1cn2c(n1)OC[C@@H](OCc1ccc(OC(F)(F)F)cc1)C2 [pretomanid] showed GRinf equal to -0.14

The compound NNC(=O)c1ccncc1 [isoniazid] + COc1c(N2C[C@@H]3CCCN[C@@H]3C2)c(F)cc2c(=O)c(C(=O)O)cn(C3CC3)c12 [moxifloxacin] + O=[N+]([O-])c1cn2c(n1)OC[C@@H](OCc1ccc(OC(F)(F)F)cc1)C2 [pretomanid] showed GRinf equal to -0.35

The compound O=[N+]([O-])c1cn2c(n1)OC[C@@H](OCc1ccc(OC(F)(F)F)cc1)C2 [pretomanid] + NC(=O)c1cnccn1 [pyrazinamide] + CO[C@H]1/C=C/O[C@@]2(C)Oc3c(C)c(O)c4c(O)c(c(/C=N/N5CCN(C6CCCC6)CC5)c(O)c4c3C2=O)NC(=O)/C(C)=C\C=C\[C@H](C)[C@H](O)[C@@H](C)[C@@H](O)[C@@H](C)[C@H](OC(C)=O)[C@@H]1C showed GRinf equal to -0.415

The compound NNC(=O)c1ccncc1 [isoniazid] + COc1c(N2C[C@@H]3CCCN[C@@H]3C2)c(F)cc2c(=O)c(C(=O)O)cn(C3CC3)c12 [moxifloxacin] + CO[C@H]1/C=C/O[C@@]2(C)Oc3c(C)c(O)c4c(O)c(c(/C=N/N5CCN(C6CCCC6)CC5)c(O)c4c3C2=O)NC(=O)/C(C)=C\C=C\[C@H](C)[C@H](O)[C@@H](C)[C@@H](O)[C@@H](C)[C@H](OC(C)=O)[C@@H]1C [rifapentine] showed GRinf equal to -0.115

###

tested on: Mycobacterium tuberculosis Erdman (autoluminescent); test: total FIC50 (Loewe) at 50% inhibition, three-drug combination (log2); higher = more antagonistic; conditions: in vitro model: butyrate; time point: constant (~7 days, model-specific)
Overview of recorded total FIC50 for various compounds
Note: the reply should be a number with no unit written.

1. CC(C)/N=c1\cc2n(-c3ccc(Cl)cc3)c3ccccc3nc-2cc1Nc1ccc(Cl)cc1 [clofazimine] + O=[N+]([O-])c1cn2c(n1)OC[C@@H](OCc1ccc(OC(F)(F)F)cc1)C2 [pretomanid] + CO[C@H]1/C=C/O[C@@]2(C)Oc3c(C)c(O)c4c(O)c(c(/C=N/N5CCN(C6CCCC6)CC5)c(O)c4c3C2=O)NC(=O)/C(C)=C\C=C\[C@H](C)[C@H](O)[C@@H](C)[C@@H](O)[C@@H](C)[C@H](OC(C)=O)[C@@H]1C [rifapentine]    0.542

The compound CC(=O)NC[C@H]1CN(c2ccc(N3CCOCC3)c(F)c2)C(=O)O1 [linezolid] + NC(=O)c1cnccn1 [pyrazinamide] + CO[C@H]1/C=C/O[C@@]2(C)Oc3c(C)c(O)c4c(O)c(c(/C=N/N5CCN(C6CCCC6)CC5)c(O)c4c3C2=O)NC(=O)/C(C)=C\C=C\[C@H](C)[C@H](O)[C@@H](C)[C@@H](O)[C@@H](C)[C@H](OC(C)=O)[C@@H]1C [rifapentine] showed total FIC50 equal to -0.0866

###

tested on: Mycobacterium tuberculosis Erdman (autoluminescent); experiment: Einf, fitted maximum growth inhibition of three-drug combination (fraction); higher = stronger maximal inhibition; settings: in vitro model: cholesterol 0.05 mM; time point: constant (~7 days, model-specific)
Overview of recorded Einf for various compounds
Note: the reply should be a number with no unit written.

Observe how each entry below is paired with its result.
1) CC(C)/N=c1\cc2n(-c3ccc(Cl)cc3)c3ccccc3nc-2cc1Nc1ccc(Cl)cc1 [clofazimine] + COc1c(N2C[C@@H]3CCCN[C@@H]3C2)c(F)cc2c(=O)c(C(=O)O)cn(C3CC3)c12 [moxifloxacin] + CO[C@H]1/C=C/O[C@@]2(C)Oc3c(C)c(O)c4c(O)c(c(/C=N/N5CCN(C)CC5)c(O)c4c3C2=O)NC(=O)/C(C)=C\C=C\[C@H](C)[C@H](O)[C@@H](C)[C@@H](O)[C@@H](C)[C@H](OC(C)=O)[C@@H]1C [rifampicin]    0.622
2) CC(=O)NC[C@H]1CN(c2ccc(N3CCOCC3)c(F)c2)C(=O)O1 [linezolid] + COc1c(N2C[C@@H]3CCCN[C@@H]3C2)c(F)cc2c(=O)c(C(=O)O)cn(C3CC3)c12 [moxifloxacin] + CO[C@H]1/C=C/O[C@@]2(C)Oc3c(C)c(O)c4c(O)c(c(/C=N/N5CCN(C)CC5)c(O)c4c3C2=O)NC(=O)/C(C)=C\C=C\[C@H](C)[C@H](O)[C@@H](C)[C@@H](O)[C@@H](C)[C@H](OC(C)=O)[C@@H]1C [rifampicin]    0.709
3) O=[N+]([O-])c1cn2c(n1)OC[C@@H](OCc1ccc(OC(F)(F)F)cc1)C2 [pretomanid] + NC(=O)c1cnccn1 [pyrazinamide] + CO[C@H]1/C=C/O[C@@]2(C)Oc3c(C)c(O)c4c(O)c(c(/C=N/N5CCN(C)CC5)c(O)c4c3C2=O)NC(=O)/C(C)=C\C=C\[C@H](C)[C@H](O)[C@@H](C)[C@@H](O)[C@@H](C)[C@H](OC(C)=O)[C@@H]1C    0.694
4) CC(=O)NC[C@H]1CN(c2ccc(N3CCOCC3)c(F)c2)C(=O)O1 [linezolid] + COc1c(N2C[C@@H]3CCCN[C@@H]3C2)c(F)cc2c(=O)c(C(=O)O)cn(C3CC3)c12 [moxifloxacin] + O=[N+]([O-])c1cn2c(n1)OC[C@@H](OCc1ccc(OC(F)(F)F)cc1)C2 [pretomanid]    0.692

Moving on to the next compound.
The compound NNC(=O)c1ccncc1 [isoniazid] + CO[C@H]1/C=C/O[C@@]2(C)Oc3c(C)c(O)c4c(O)c(c(/C=N/N5CCN(C6CCCC6)CC5)c(O)c4c3C2=O)NC(=O)/C(C)=C\C=C\[C@H](C)[C@H](O)[C@@H](C)[C@@H](O)[C@@H](C)[C@H](OC(C)=O)[C@@H]1C [rifapentine] + CO[C@H]1/C=C/O[C@@]2(C)Oc3c(C)c(O)c4c(O)c(c(/C=N/N5CCN(C)CC5)c(O)c4c3C2=O)NC(=O)/C(C)=C\C=C\[C@H](C)[C@H](O)[C@@H](C)[C@@H](O)[C@@H](C)[C@H](OC(C)=O)[C@@H]1C [rifampicin] showed Einf equal to 0.62

Entry source: the supplement of paper PMC8617591
